Would you mind telling me the reported pIC50 of each entry?
# target-system: BRD3 (His-Brd3(20-477)) (Homo sapiens (Human))
# Sequence (Q15059 20-477, species assumed): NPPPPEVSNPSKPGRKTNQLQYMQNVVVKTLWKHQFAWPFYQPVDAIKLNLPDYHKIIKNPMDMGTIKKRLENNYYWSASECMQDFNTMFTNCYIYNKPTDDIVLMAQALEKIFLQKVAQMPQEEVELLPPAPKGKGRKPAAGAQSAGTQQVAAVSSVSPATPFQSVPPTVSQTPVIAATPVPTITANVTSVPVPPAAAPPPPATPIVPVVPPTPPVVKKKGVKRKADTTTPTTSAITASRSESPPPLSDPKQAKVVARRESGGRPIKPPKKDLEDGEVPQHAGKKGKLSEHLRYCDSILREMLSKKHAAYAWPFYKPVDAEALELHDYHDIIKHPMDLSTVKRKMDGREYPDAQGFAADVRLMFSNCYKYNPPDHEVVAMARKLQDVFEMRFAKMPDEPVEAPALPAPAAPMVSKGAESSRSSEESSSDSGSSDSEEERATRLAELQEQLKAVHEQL
pIC50 is defined as minus the log10 of a concentration measured in mol/L.

Given the entry COc1ncccc1-c1nn(C)c2c1C(=O)N(c1cc(C)c(=O)n(C)c1)[C@@H]2c1ccc(Cl)cc1 , what pIC50 was observed with BRD3 (His-Brd3(20-477)) (Homo sapiens (Human))?
7.28

One more compound: COc1ncc(-n2nc3c(c2C)C(=O)N(c2cc(Cl)c(=O)n(C)c2)C3c2ccc(Cl)cc2)cn1 (stereo not shown)
6.85

One more compound: Cc1nn(C(C)C)c2c1C(=O)N(c1cc(C)c(=O)n(C)c1)C2c1ccc(Cl)cc1 (stereo not shown)
7.34

One more compound: COc1ncccc1-n1nc2c(c1C)C(=O)N(c1cc(C)c(=O)n(C)c1)C2c1ccc(Cl)cc1 (stereo not shown) [Example 17b]
7.34

One more compound: COc1ccc(-n2nc3c(c2C)C(=O)N(c2cc(C)c(=O)n(C)c2)C3c2ccc(Cl)cc2)cn1 (stereo not shown) [Example 20a]
7.30

One more compound: COCCn1nc(C2CC2)c2c1C(c1ccc(Cl)cc1)N(c1cc(C)c(=O)n(C)c1)C2=O (stereo not shown)
7.89

One more compound: COc1ccc(-n2nc(C)c3c2C(c2ccc(Cl)cc2)N(c2cc(C)c(=O)n(C)c2)C3=O)cc1 (stereo not shown)
7.12

###

# System: MV-4-11 cells
# assay-protocol: Cell growth inhibition assay (CellTiter-Glo), MV-4-11
# Type: cell-based, human
# condition-notes: Homo sapiens, MV4-11, 96 h, MV-4-11, 4 days, half-maximal growth inhibition
Response field label takes 1.0 when GI50 is strictly below 0.04 µM and 0.0 in all other cases.

Hello, I'm reviewing records and need to know if GI50 of Cc1cc(N2C(=O)c3c(C4CC4)n[nH]c3[C@H]2c2ccc(Cl)cc2)cn(C)c1=O is below 0.04 µM. Could you check?
1.0

One more molecule: Cc1cc(N2C(=O)c3c(C4CC4)n[nH]c3C2c2ccc(Cl)cc2)cn(C)c1=O (centres unmarked)
1.0

One more molecule: Cc1[nH]nc2c1C(=O)N(c1cc(C)c(=O)n(C)c1)[C@@H]2c1ccc(Cl)cc1
1.0

One more molecule: COc1ccc(-n2nc(C)c3c2C(c2ccc(Cl)cc2)N(c2cc(C)c(=O)n(C)c2)C3=O)cn1 (centres unmarked) [Example 20b]
1.0

One more molecule: COc1ncccc1-c1nn(C)c2c1C(=O)N(c1cc(C)c(=O)n(C)c1)[C@@H]2c1ccc(Cl)cc1
1.0

One more molecule: COCCn1nc(C2CC2)c2c1C(c1ccc(Cl)cc1)N(c1cc(C)c(=O)n(C)c1)C2=O (centres unmarked)
1.0

One more molecule: COc1ncccc1-n1nc2c(c1C)C(=O)N(c1cc(C)c(=O)n(C)c1)[C@@H]2c1ccc(Cl)cc1
1.0

One more molecule: COc1ncccc1-n1nc(C)c2c1C(c1ccc(Cl)cc1)N(c1cc(C)c(=O)n(C)c1)C2=O (centres unmarked) [Example 17a]
0.0

One more molecule: COc1ccc(-n2nc3c(c2C)C(=O)N(c2cc(C)c(=O)n(C)c2)C3c2ccc(Cl)cc2)cn1 (centres unmarked) [Example 20a]
0.0

One more molecule: COc1ncc(-n2nc3c(c2C)C(=O)N(c2cc(Cl)c(=O)n(C)c2)C3c2ccc(Cl)cc2)cn1 (centres unmarked)
0.0

One more molecule: Cc1cc(N2C(=O)c3c(C4CC4)nn(C)c3C2c2ccc(Cl)cc2)cn(C)c1=O (centres unmarked)
1.0

One more molecule: Cc1cc(N2C(=O)c3c(C4CC4)nn(CCO)c3C2c2ccc(Cl)cc2)cn(C)c1=O (centres unmarked)
1.0

One more molecule: COc1ncccc1-n1nc2c(c1C)C(=O)N(c1cc(Cl)c(=O)n(C)c1)C2c1ccc(Cl)cc1 (centres unmarked)
0.0

One more molecule: COc1ncc(-n2nc(C)c3c2C(c2ccc(Cl)cc2)N(c2cc(C)c(=O)n(C)c2)C3=O)cn1 (centres unmarked) [Example 21a]
0.0

One more molecule: COc1ncc(-n2nc3c(c2C)C(=O)N(c2cc(C)c(=O)n(C)c2)C3c2ccc(Cl)cc2)c(OC)n1 (centres unmarked)
0.0

One more molecule: Cc1cc(N2C(=O)c3c(C4CC4)nn(-c4ccnn4C)c3C2c2ccc(Cl)cc2)cn(C)c1=O (centres unmarked)
0.0

One more molecule: Cc1[nH]nc2c1C(=O)N(c1cc(Cl)c(=O)n(C)c1)C2c1ccc(Cl)cc1 (centres unmarked)
0.0

One more molecule: COc1ncc(-n2nc(C)c3c2C(c2ccc(Cl)cc2)N(c2cc(Cl)c(=O)n(C)c2)C3=O)cn1 (centres unmarked)
0.0

###

# Tested on: THP-1 cells
# assay-protocol: Cell growth inhibition assay (CellTiter-Glo), THP-1
# Format: cell-based, human
# condition-notes: THP-1, 4 days, total growth inhibition
measurement-type: THP-1 TGI (nM)
Quick note: give the figure in nM, leave out the unit.

Requested field: THP-1 TGI. Item: COc1ncc(-n2nc3c(c2C)C(=O)N(c2cc(C)c(=O)n(C)c2)C3c2ccc(Cl)cc2)c(OC)n1 (centres unmarked) [Example 14]
352

One more compound: COc1ncccc1-n1nc2c(c1C)C(=O)N(c1cc(C)c(=O)n(C)c1)C2c1ccc(Cl)cc1 (centres unmarked) [Example 17b]
117

One more compound: Cc1[nH]nc2c1C(=O)N(c1cc(Cl)c(=O)n(C)c1)C2c1ccc(Cl)cc1 (centres unmarked) [Example 6]
352

One more compound: COc1ncccc1-n1nc(C)c2c1C(c1ccc(Cl)cc1)N(c1cc(C)c(=O)n(C)c1)C2=O (centres unmarked) [Example 17a]
175

One more compound: COCCn1nc(C2CC2)c2c1C(c1ccc(Cl)cc1)N(c1cc(C)c(=O)n(C)c1)C2=O (centres unmarked) [Example 4]
100

One more compound: Cc1cc(N2C(=O)c3c(C4CC4)nn(-c4ccnn4C)c3[C@H]2c2ccc(Cl)cc2)cn(C)c1=O [Example 22]
165

One more compound: Cc1cc(N2C(=O)c3c(C4CC4)n[nH]c3C2c2ccc(Cl)cc2)cn(C)c1=O (centres unmarked) [Example 23]
128.5

One more compound: Cc1nn(C(C)C)c2c1C(=O)N(c1cc(C)c(=O)n(C)c1)C2c1ccc(Cl)cc1 (centres unmarked) [Example 12]
112

###

# Test system: THP-1 cells
# assay-protocol: Cell growth inhibition assay (CellTiter-Glo), THP-1
# Type: cell-based, human
# condition-notes: THP-1, 4 days, total growth inhibition
Would you mind telling me the reported THP-1 TGI of each entry?
Quick note: give the figure in µM, leave out the unit.

Requested field: THP-1 TGI. Item: COc1ncc(-n2nc(C)c3c2C(c2ccc(Cl)cc2)N(c2cc(Cl)c(=O)n(C)c2)C3=O)cn1 (centres unmarked)
0.493

One more compound: COc1ncccc1-n1nc(C)c2c1[C@@H](c1ccc(Cl)cc1)N(c1cc(C)c(=O)n(C)c1)C2=O
0.1355

One more compound: COc1ccc(-n2nc(C)c3c2C(c2ccc(Cl)cc2)N(c2cc(C)c(=O)n(C)c2)C3=O)cn1 (centres unmarked) [Example 20b]
0.156

One more compound: Cc1cc(N2C(=O)c3c(C4CC4)nn(CCO)c3C2c2ccc(Cl)cc2)cn(C)c1=O (centres unmarked)
0.264

One more compound: CCOc1ncccc1-n1nc(C)c2c1C(c1ccc(Cl)cc1)N(c1cc(C)c(=O)n(C)c1)C2=O (centres unmarked) [Example 18a]
0.175

###

Target or system BRD3 (His-Brd3(20-477)) (Homo sapiens (Human), UniProt Q15059): recorded IC50 listed per item.
Quick note: give the figure in nM, leave out the unit.

Requested field: IC50. Item: CCOc1ncccc1-n1nc2c(c1C)C(=O)N(c1cc(C)c(=O)n(C)c1)C2c1ccc(Cl)cc1 (stereo not shown) [Example 18b]
39

One more compound: COc1ncccc1-n1nc(C)c2c1[C@@H](c1ccc(Cl)cc1)N(c1cc(C)c(=O)n(C)c1)C2=O
64

One more compound: Cc1nn(C)c2c1C(=O)N(c1cc(C)c(=O)n(C)c1)C2c1ccc(Cl)cc1 (stereo not shown)
62

One more compound: COc1ncccc1-c1nn(C)c2c1C(=O)N(c1cc(C)c(=O)n(C)c1)C2c1ccc(Cl)cc1 (stereo not shown)
65.5

###

Would you mind telling me the reported pIC50 of each entry?
# target-system: BRD4 (His-Brd4(44-477)) (Homo sapiens (Human), UniProt O60885)
pIC50 is defined as minus the log10 of a concentration measured in mol/L.

Requested field: pIC50. Item: Cc1nn(C(C)C)c2c1C(=O)N(c1cc(C)c(=O)n(C)c1)C2c1ccc(Cl)cc1 (stereo not shown) [Example 12]
7.17

One more compound: COc1ccc(-n2nc(C)c3c2C(c2ccc(Cl)cc2)N(c2cc(C)c(=O)n(C)c2)C3=O)cn1 (stereo not shown) [Example 20b]
7.25

One more compound: Cc1cc(N2C(=O)c3c(C4CC4)n[nH]c3[C@H]2c2ccc(Cl)cc2)cn(C)c1=O [Example 24]
7.14

One more compound: Cc1nn(C2CC2)c2c1C(=O)N(c1cc(C)c(=O)n(C)c1)C2c1ccc(Cl)cc1 (stereo not shown) [Example 11]
7.40

One more compound: COc1ccc(-n2nc3c(c2C)C(=O)N(c2cc(C)c(=O)n(C)c2)C3c2ccc(Cl)cc2)cn1 (stereo not shown) [Example 20a]
7.21

One more compound: COc1ncccc1-c1nn(C)c2c1C(=O)N(c1cc(C)c(=O)n(C)c1)[C@@H]2c1ccc(Cl)cc1 [Example 16]
7.25

One more compound: COc1ncc(-n2nc3c(c2C)C(=O)N(c2cc(C)c(=O)n(C)c2)C3c2ccc(Cl)cc2)c(OC)n1 (stereo not shown) [Example 14]
7.00

One more compound: COc1ncc(-n2nc(C)c3c2C(c2ccc(Cl)cc2)N(c2cc(C)c(=O)n(C)c2)C3=O)cn1 (stereo not shown) [Example 21a]
7.15

One more compound: COc1ncc(-n2nc(C)c3c2C(c2ccc(Cl)cc2)N(c2cc(Cl)c(=O)n(C)c2)C3=O)cn1 (stereo not shown) [Example 8a]
6.77

One more compound: COc1ncc(-n2nc3c(c2C)C(=O)N(c2cc(C)c(=O)n(C)c2)C3c2ccc(Cl)cc2)cn1 (stereo not shown) [Example 21b]
6.96

One more compound: CCOc1ncccc1-n1nc2c(c1C)C(=O)N(c1cc(C)c(=O)n(C)c1)C2c1ccc(Cl)cc1 (stereo not shown) [Example 18b]
7.39

One more compound: COc1ncccc1-n1nc2c(c1C)C(=O)N(c1cc(C)c(=O)n(C)c1)C2c1ccc(Cl)cc1 (stereo not shown) [Example 17b]
7.25

One more compound: Cc1[nH]nc2c1C(=O)N(c1cc(Cl)c(=O)n(C)c1)C2c1ccc(Cl)cc1 (stereo not shown) [Example 6]
6.92

One more compound: COCCn1nc(C2CC2)c2c1C(c1ccc(Cl)cc1)N(c1cc(C)c(=O)n(C)c1)C2=O (stereo not shown) [Example 4]
7.85

One more compound: COc1ncccc1-c1nn(C)c2c1C(=O)N(c1cc(C)c(=O)n(C)c1)C2c1ccc(Cl)cc1 (stereo not shown) [Example 15]
7.20

One more compound: COc1ncccc1-n1nc(C)c2c1[C@@H](c1ccc(Cl)cc1)N(c1cc(C)c(=O)n(C)c1)C2=O [Example 25]
6.82
